System: 786-0 renal
Assay: NCI tumour cell line growth inhibition, 48 h; in the data active = GI50 below about 0.43 µM; inactive = the rest
In this exercise, the only acceptable responses are 1 (active), -1 (inactive)

Example entries and their recorded answers appear below.
• Cc1[nH]c2ccccc2c1CCNCc1ccc(/C=C/C(=O)NO)cc1 = 1
• COc1cc(C2CC(c3ccc(N(C)C)cc3)=NN2C(C)=O)cc(OC)c1OC (stereo unspecified) = -1
• CN(C)CC1CCCCCC(CN(C)C)C1=O (stereo unspecified) = -1
• O=C(CCCSc1nc(-c2ccccc2)cc(-c2ccc(Cl)cc2)n1)NO = -1
• O=C(CN1CCN(c2ccccc2)CC1)N1CCN(c2nnc(-c3ccc(Cl)cc3)c(-c3ccc(Cl)cc3)n2)CC1 = -1

Query molecule follows.
For this molecule, state the assay outcome: `CC(C)N1C(NNC(=O)c2cnccn2)=NS(=O)(=O)c2ccccc21`
-1

----------
Recorded GI50 by entry
System: SN12C renal
Assay: NCI tumour cell line growth inhibition, 48 h

Worked examples follow.
• Cn1ccnc1C(=O)/C=C/c1ccc(CC(=O)Nc2ccc(C(F)(F)F)cc2)cc1 = 4.32 µM
• CCCCNC(=O)NS(=O)(=O)c1ccc(N2N=C(c3cc(C)ccc3C)CC2c2cc(OC)c(OC)c(OC)c2)cc1 (centres undefined) = 3.36 µM
• Nc1nc(N)c(N=O)c(OCC2CCCCC2)n1 = 5.87 µM
• Nc1ccc(-c2ccc(N)cc2I)c(I)c1 = 19.7 µM
• Cn1cc(-c2ccc(-c3cn(C)c4ccc(Cl)cc34)s2)c2cc(Cl)ccc21 = > 100 µM
• Nc1n[nH]c2ccc([C@@H]3Nc4ccc5[nH]ncc5c4[C@H]4C5C=CC(C5)[C@@H]34)cc12 (some centres undefined) = 0.52 µM
• COc1cc(C(=O)/C=C/c2cccnc2Nc2ccccc2)cc(OC)c1OC = 1.21 µM
• O=C(CN1CCN(c2ccccc2)CC1)N1CCN(c2nnc(-c3ccc(Cl)cc3)c(-c3ccc(Cl)cc3)n2)CC1 = 13 µM
• CCOC(=O)c1nc(Nc2ccc(Cl)cc2)c2ccccc2n1 = 11.5 µM
• Cc1cn2c(/C=N/Nc3ccccn3)c(-c3ccc(Cl)c([N+](=O)[O-])c3)nc2s1 = 14.3 µM

I am curious: what GI50 value has been reported for `C/C=C/[C@@H]1OC(=O)C2=C[C@@H](O)[C@@H](/C=C/C)O[C@H]21` ?
3.76 µM

----------
Tested on: LOX IMVI melanoma
Experiment: NCI tumour cell line growth inhibition, 48 h
Recorded TGI by entry

* COc1cccc(C2SCC(=O)N2c2ccc(-n3c(-c4ccccc4)nc4ccccc4c3=O)cc2)c1OC (stereo not given) | > 100 µM
* CC(C)CCc1n[nH]c(=O)n1/N=C\c1ccccc1 | > 100 µM
* COCCNc1cc(NC(=O)N2CCCc3cc(CN4CCN(C)CC4=O)c(C=O)nc32)ncc1C#N | > 50 µM
* O=C1[C@@H]2C[C@@H](O)CN2C(=O)c2ccccc2N1CCCO | > 100 µM
* COc1cc(C)c(O)c(C(=O)O)c1 | > 100 µM

I am curious: what TGI value has been reported for `COc1ccc(-c2c3c(nc4nc(SC)nc(SC)c24)CCCC3)cc1OC` ?
> 100 µM

I am curious: what TGI value has been reported for `COc1cc(Oc2nc3c(N)cc(C(F)(F)F)cc3nc2-c2ccccc2)cc(OC)c1OC` ?
> 100 µM
